Each entry below lists one item and its recorded cAMP EC50 value.
target: T1, human parathyroid hormone receptor 1, wild-type (hPTHR-1) (human, UniProt Q03431 27-593)
T1 sequence (looked up): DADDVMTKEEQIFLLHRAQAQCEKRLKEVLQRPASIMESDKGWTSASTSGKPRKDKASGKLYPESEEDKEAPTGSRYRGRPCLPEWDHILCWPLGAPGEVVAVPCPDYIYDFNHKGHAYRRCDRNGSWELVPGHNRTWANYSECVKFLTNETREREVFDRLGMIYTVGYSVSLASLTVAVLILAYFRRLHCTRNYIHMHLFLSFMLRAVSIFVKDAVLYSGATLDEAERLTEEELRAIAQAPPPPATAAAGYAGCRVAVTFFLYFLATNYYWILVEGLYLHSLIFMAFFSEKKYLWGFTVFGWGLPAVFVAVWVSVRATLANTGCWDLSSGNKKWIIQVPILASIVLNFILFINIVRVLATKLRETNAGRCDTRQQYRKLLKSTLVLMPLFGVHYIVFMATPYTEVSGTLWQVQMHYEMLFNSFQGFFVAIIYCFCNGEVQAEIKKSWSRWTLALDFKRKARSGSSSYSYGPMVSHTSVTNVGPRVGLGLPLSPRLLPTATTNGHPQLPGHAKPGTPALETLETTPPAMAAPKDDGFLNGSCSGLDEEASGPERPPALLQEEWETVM
assay-remarks: cell-based or functional assay
Non-standard residues stand in square brackets, D forms with d. No end group written: not given here. β3hW = N[C@H](CC(=O)O)Cc1c[nH]c2ccccc12; β3hE = N[C@@H](CCC(=O)O)CC(=O)O; β3hF = N[C@H](CC(=O)O)Cc1ccccc1; β3hK = NCCCC[C@H](N)CC(=O)O; β3hM = CSCC[C@H](N)CC(=O)O; β3hD = NC(CC(=O)O)CC(=O)O
# output: bare number, implied unit nM

{"binder": "SVSEIQLMHNLGK[β3hW]LNS[β3hM]ERV[β3hE]WLR[β3hK]KLQ[β3hD]VHN[β3hF]-NH2 (also called α/β-peptide D6) [D6]", "quantity-kind": "cAMP EC50", "result": 0.13}

Note: attention shifts to another entry.
Look up cAMP EC50 for this binder: SVSEIQLMHNLGKWLNSMERVEWLRKKLQDVHNF-NH2 (not fully specified (residue 14); printed as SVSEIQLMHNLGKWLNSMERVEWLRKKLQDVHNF-NH2; also: seven β3 residues, positions not given here in text, also called α/β-peptide D7) [D7] 0.39
